Origin of measurements: patent US20090247555A1

Target sequence: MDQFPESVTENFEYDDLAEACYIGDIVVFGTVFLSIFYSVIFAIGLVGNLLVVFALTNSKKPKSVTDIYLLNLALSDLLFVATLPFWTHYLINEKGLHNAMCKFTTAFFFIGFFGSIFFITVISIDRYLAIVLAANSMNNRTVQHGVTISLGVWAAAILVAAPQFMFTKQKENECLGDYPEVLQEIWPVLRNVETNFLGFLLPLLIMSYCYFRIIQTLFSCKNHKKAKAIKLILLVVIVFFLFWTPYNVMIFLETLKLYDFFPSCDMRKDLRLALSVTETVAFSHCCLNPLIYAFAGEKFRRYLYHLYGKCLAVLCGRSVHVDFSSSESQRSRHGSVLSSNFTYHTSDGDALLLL
READOUT_TYPE: pIC50
Scale: negative log10 of molar concentration, which is what pIC50 denotes.

INSERT INTO results (compound, readout_type, recorded_measurement) VALUES
  ('CC(C)CC(CO)Nc1nc(SC(C)c2ccccn2)nc2[nH]c(=O)sc12 (single isomer, unassigned; isomer 2) [Example 13]', 'pIC50', 5.04);

# input for lookup
Data request, read-out pIC50, for CC(C)C[C@H](CO)Nc1nc(SC(C)c2ccccn2)nc2[nH]c(=O)sc12 (some centres unmarked) [Example 1]
5.59
